Assay name: qHTS drug screen for cell cycle checkpoint inhibitors in PARPi-resistant BRCA-mutant ovarian cancer cell lines. (AID 1963452)
Assay context: PEO1/OlaR viability, CellTiter-Glo luminescence, 96 h; stronger effect = lower value
hey, just use Fulfilled if measured Z-AUC is less than 0.4, otherwise Not fulfilled

| Compound | Class assignment |
| --- | --- |
| C=C1C[C@@]2(O)O[C@@]3(C[C@H]2C(C)C)[C@@H](C)CC[C@@H]13 | Fulfilled |
| N#Cc1cccc(-c2c[nH]c3ncnc(N4CCOCC4)c23)c1 | Fulfilled |
| Cn1cc(-c2c[nH]c3ncnc(N4CCOCC4)c23)cn1 | Not fulfilled |
| C[C@@H]1O[C@@H](O[C@@H]2\C=C/C=C\C=C/C=C\C[C@H](C)OC(=O)/C=C\[C@H]3O[C@@H]3C[C@H](O)C[C@]3(O)C[C@@H](O)[C@@H](C(=O)O)[C@H](C2)O3)[C@H](O)[C@H](N)[C@@H]1O | Not fulfilled |
| CCCCOc1nc(N)c2c(n1)N(Cc1cccc(CN3CCCC3)c1)CC(=O)N2 | Fulfilled |
| Cc1noc2c1-c1ccccc1C(c1ccc(Cl)cc1)=N[C@H]2CC(N)=O | Fulfilled |
| Nc1ncnc2c1c(COc1cccc(Cl)c1)nn2C1CCOCC1 | Fulfilled |
| CC(C)[C@](O)(c1ccc2cc(OC(F)F)c(OC(F)F)cc2c1)c1cn[nH]n1 | Fulfilled |
| O=C(O)CC1CCC(c2ccc(-c3ccc(Nc4ccc(C(F)(F)F)nc4)cn3)cc2)CC1 (centres undefined) | Fulfilled |
| COc1ccc2[nH]c(S(=O)Cc3ncc(C)c(OC)c3C)nc2c1 (centres undefined) | Not fulfilled |
| O=C1NC(=O)/C(=C/c2cccc(C(F)(F)F)c2)S1 | Not fulfilled |
| O=C(/C=C/C=C/c1ccc2c(c1)OCO2)N1CCCCC1 | Not fulfilled |
| Cc1c(F)cc(C(=O)NC2CC2)cc1-c1ccc(C(=O)NCC(C)(C)C)cn1 | Not fulfilled |
| Cc1cccc(-c2nn3c(c2-c2ccnc4ccc(C(N)=O)cc24)CCC3)n1 | Not fulfilled |
| Nc1ncnc2c1C(=O)N(c1ccc(C3CCC(CC(=O)O)CC3)cc1)CCO2 (centres undefined) | Fulfilled |
| Cc1ccccc1-n1nc(-c2c(-c3ccc(F)cc3)nn3c2NC[C@@H](CO)C3)ccc1=O | Fulfilled |
| CC(C)N(CCCNC(=O)Nc1ccc(C(C)(C)C)cc1)C[C@H]1O[C@@H](n2ccc3c(N)ncnc32)[C@H](O)[C@@H]1O | Fulfilled |
| O=C(COCC(=O)N1CCN(C(c2ccccc2)c2ccccc2)CC1)Nc1ccc(Cl)cc1C(=O)O | Not fulfilled |
